Biological target: ER-alpha (WT) (Homo sapiens (Human))
Sequence (P03372 whole entry): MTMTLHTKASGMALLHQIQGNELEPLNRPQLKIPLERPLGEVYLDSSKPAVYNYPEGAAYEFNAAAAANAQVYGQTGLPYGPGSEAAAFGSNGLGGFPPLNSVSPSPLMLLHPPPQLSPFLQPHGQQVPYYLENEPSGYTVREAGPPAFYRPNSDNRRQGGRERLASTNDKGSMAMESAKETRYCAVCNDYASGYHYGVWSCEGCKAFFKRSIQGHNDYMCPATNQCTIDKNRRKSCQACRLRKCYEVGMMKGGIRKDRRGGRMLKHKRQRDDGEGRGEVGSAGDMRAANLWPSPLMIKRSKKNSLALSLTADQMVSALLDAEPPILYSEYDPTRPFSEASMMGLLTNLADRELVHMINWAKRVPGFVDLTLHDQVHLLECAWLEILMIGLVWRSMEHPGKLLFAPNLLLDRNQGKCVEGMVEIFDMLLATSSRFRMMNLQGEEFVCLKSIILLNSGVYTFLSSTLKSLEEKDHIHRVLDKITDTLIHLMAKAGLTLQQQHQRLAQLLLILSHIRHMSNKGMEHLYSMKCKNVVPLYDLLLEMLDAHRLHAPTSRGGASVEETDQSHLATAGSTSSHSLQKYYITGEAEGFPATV
Test: Breast Cancer Cell ERa High Content Fluorescence Imaging Degradation Assay (ER-alpha MCF7 HCS)
Conditions: MCF7 breast cancer cells, 4 hours incubation; inflexion point of curve
attribute.measured: EC50 (nM)

Worked examples follow.
molecule: CN1CC(CCOc2ccc([C@@H]3c4ccc(O)cc4CC[C@@H]3c3ccccc3)cc2)C1 (stereo in doubt) [A, reference compound]
unit.tag: nM
EC50: 19

molecule: CS(=O)(=O)c1ccc([C@H]2CCc3cc(O)ccc3[C@H]2c2ccc(OCCN3CC(CF)C3)cc2)cc1
unit.tag: nM
EC50: 0.227

molecule: Oc1ccc2c(c1)CC[C@@H](c1ccccc1)[C@H]2c1ccc(OCCN2CC(CF)C2)nc1
unit.tag: nM
EC50: 12.5

molecule: Oc1ccc2c(c1)CC[C@H](C1CCOCC1)[C@@H]2c1ccc(OCCN2CC(CF)C2)cc1
unit.tag: nM
EC50: 16.4

molecule: Oc1ccc2c(c1)CC[C@H](c1ccccc1)[C@@H]2c1ccc(OCCN2CC(CF)C2)cc1
unit.tag: nM
EC50: 0.371

a: Oc1cccc2c1[C@H](c1ccc(OCCN3CC(CF)C3)cc1)[C@H](c1ccccc1)CC2
b: C[C@H](CN1CC[C@@H](CF)C1)Oc1ccc([C@H]2c3ccc(O)cc3CC[C@H]2c2ccccc2)cc1
c: CS(=O)(=O)c1ccc([C@@H]2CCc3cc(O)ccc3[C@@H]2c2ccc(OCCN3CC(CF)C3)cc2)cc1
d: Oc1ccc2c(c1)CC[C@H](c1ccc(F)cc1)[C@@H]2c1ccc(OCCN2CC(CF)C2)cc1
Ask | Order the items by recorded EC50; the first position goes to the largest value. Kindly provide the labels arranged according to the requested ordering.
Reply | a, c, d, b
(a: 186 nM, c: 39.4 nM, d: 0.977 nM, b: 0.675 nM)

A: Oc1ccc2c(c1)CC[C@H](c1ccccc1)[C@@H]2c1ccc(OCCN2CC(C(F)F)C2)cc1
B: Oc1ccc2c(c1)CC[C@H](c1ccccc1)[C@@H]2c1ccc(OCCN2CCC(CF)C2)cc1 (stereo partly drawn)
C: Oc1ccc2c(c1)CC[C@H](c1ccccc1)[C@@H]2c1c(F)cc(OCCN2CC(CF)C2)cc1F
Ask | Provide the items ranked by increasing EC50. Kindly provide the labels arranged according to the requested ordering.
Reply | C, A, B
(C: 0.0404 nM, A: 0.184 nM, B: 47 nM)

P: Oc1ccc2c(c1)CC[C@H](c1ccccc1)[C@@H]2c1ccc(NCCN2CC[C@@H](CF)C2)cc1
Q: Oc1ccc2c(c1)CC[C@H](c1ccccc1)[C@@H]2c1ccc(OCCN2CC(CF)C2)nc1
R: Oc1ccc2c(c1)CC[C@@H](c1ccccc1)[C@H]2c1ccc(NCCN2CC[C@@H](CF)C2)cc1
S: Oc1ccc2c(c1)CC[C@@H](C1CCC(F)(F)CC1)[C@H]2c1ccc(OCCN2CC(CF)C2)cc1
Ask | Order the items by recorded EC50; the first position goes to the largest value. Kindly provide the labels arranged according to the requested ordering.
Reply | P, S, R, Q
(P: 228 nM, S: 14.6 nM, R: 0.773 nM, Q: 0.0461 nM)

A: Oc1ccc2c(c1)CC[C@H](c1ccccc1)[C@@H]2c1ccc(OCCN2CC(CF)C2)cc1F
B: Oc1ccc2c(c1)CC[C@@H](c1ccccc1)[C@H]2c1ccc(NC2CN(CCCF)C2)cc1
Ask | Hi, I'm comparing two records. Which one has the lower EC50, A or B ? I would appreciate it if you answered with the label of your choice.
Reply | A
